pIC50: recorded values
Tested on: CCRF-CEM
Assay: Antiproliferative activity against human CCRF-CEM cells measured after 48 hrs by SRB assay
Format: functional, cell-based
Conditions: 48 h
pIC50: −log10 of the molar value.

- entry-smiles: "O=C(NCCCNc1cc(-c2cn(-c3ccccc3)nc2-c2cccc(O)c2)ccn1)Nc1cccc(C(F)(F)F)c1"
  pIC50: 5.77
- entry-smiles: "COc1cccc(-c2nn(-c3ccccc3)cc2-c2ccnc(NCCCNC(=O)Nc3ccc(F)cc3)c2)c1"
  pIC50: 5.07
- entry-smiles: "O=C(Nc1ccc(Cl)c(C(F)(F)F)c1)N1CCN(c2cc(-c3cn(-c4ccccc4)nc3-c3cccc(O)c3)ccn2)CC1"
  pIC50: 5.80
- entry-smiles: "O=C1c2ccccc2-c2n[nH]c3cccc1c23"
  pIC50: 4.80
- entry-smiles: "O=C(NCCCNc1cc(-c2cn(-c3ccccc3)nc2-c2cccc(O)c2)ccn1)Nc1ccc(F)cc1"
  pIC50: 5.85

====

System: EKVX
Test: Antiproliferative activity against human EKVX cells measured after 48 hrs by SRB assay
Assay type: functional, cell-based
Conditions: time 48 hrs
TGI: recorded values

- entry-smiles: "O=C(NCCCNc1cc(-c2cn(-c3ccccc3)nc2-c2cccc(O)c2)ccn1)Nc1ccc(F)cc1"
  unit-string: "µM"
  relation-symbol: "="
  TGI: 9.51
- entry-smiles: "O=C(Nc1ccc(Cl)c(C(F)(F)F)c1)N1CCN(c2cc(-c3cn(-c4ccccc4)nc3-c3cccc(O)c3)ccn2)CC1"
  unit-string: "µM"
  relation-symbol: "="
  TGI: 19.6
- entry-smiles: "O=C(NCCCNc1cc(-c2cn(-c3ccccc3)nc2-c2cccc(O)c2)ccn1)Nc1cccc(C(F)(F)F)c1"
  unit-string: "µM"
  relation-symbol: "="
  TGI: 8.45
- entry-smiles: "COc1cccc(-c2nn(-c3ccccc3)cc2-c2ccnc(NCCCNC(=O)Nc3ccc(F)cc3)c2)c1"
  unit-string: "µM"
  relation-symbol: ">"
  TGI: 37
- entry-smiles: "O=C1c2ccccc2-c2n[nH]c3cccc1c23"
  unit-string: "µM"
  relation-symbol: ">"
  TGI: 100

====

Test system: HOP-62
Experiment: Antiproliferative activity against human HOP-62 cells measured after 48 hrs by SRB assay
Assay type: functional, cell-based
Conditions: HOP-62, time 48 hrs

- entry-smiles: "O=C1c2ccccc2-c2n[nH]c3cccc1c23"
  relation-symbol: ">"
  TGI, µM: 100
- entry-smiles: "O=C(NCCCNc1cc(-c2cn(-c3ccccc3)nc2-c2cccc(O)c2)ccn1)Nc1cccc(C(F)(F)F)c1"
  relation-symbol: "="
  TGI, µM: 9.59
- entry-smiles: "COc1cccc(-c2nn(-c3ccccc3)cc2-c2ccnc(NCCCNC(=O)Nc3ccc(F)cc3)c2)c1"
  relation-symbol: ">"
  TGI, µM: 37
- entry-smiles: "O=C(NCCCNc1cc(-c2cn(-c3ccccc3)nc2-c2cccc(O)c2)ccn1)Nc1ccc(F)cc1"
  relation-symbol: "="
  TGI, µM: 9.26
- entry-smiles: "O=C(Nc1ccc(Cl)c(C(F)(F)F)c1)N1CCN(c2cc(-c3cn(-c4ccccc4)nc3-c3cccc(O)c3)ccn2)CC1"
  relation-symbol: ">"
  TGI, µM: 22

====

Reported TGI values for a set of compounds
Tested on: BT-549
Assay: Antiproliferative activity against human BT-549 cells measured after 48 hrs by SRB assay
Type: functional, cell-based
Details: BT-549, time 48 hrs

- entry-smiles: "O=C1c2ccccc2-c2n[nH]c3cccc1c23"
  TGI: "> 100 µM"
- entry-smiles: "O=C(Nc1ccc(Cl)c(C(F)(F)F)c1)N1CCN(c2cc(-c3cn(-c4ccccc4)nc3-c3cccc(O)c3)ccn2)CC1"
  TGI: "7.99 µM"
- entry-smiles: "COc1cccc(-c2nn(-c3ccccc3)cc2-c2ccnc(NCCCNC(=O)Nc3ccc(F)cc3)c2)c1"
  TGI: "20.3 µM"
- entry-smiles: "O=C(NCCCNc1cc(-c2cn(-c3ccccc3)nc2-c2cccc(O)c2)ccn1)Nc1cccc(C(F)(F)F)c1"
  TGI: "7.63 µM"
- entry-smiles: "O=C(NCCCNc1cc(-c2cn(-c3ccccc3)nc2-c2cccc(O)c2)ccn1)Nc1ccc(F)cc1"
  TGI: "11.6 µM"

====

System: T47D
Assay: Antiproliferative activity against human T47D cells measured after 48 hrs by SRB assay
Assay type: functional, cell-based
Conditions: time 48 hrs

- entry-smiles: "O=C1c2ccccc2-c2n[nH]c3cccc1c23"
  relation-symbol: ">"
  TGI [µM]: 100
- entry-smiles: "O=C(NCCCNc1cc(-c2cn(-c3ccccc3)nc2-c2cccc(O)c2)ccn1)Nc1ccc(F)cc1"
  relation-symbol: "="
  TGI [µM]: 11
- entry-smiles: "O=C(Nc1ccc(Cl)c(C(F)(F)F)c1)N1CCN(c2cc(-c3cn(-c4ccccc4)nc3-c3cccc(O)c3)ccn2)CC1"
  relation-symbol: "="
  TGI [µM]: 14.8
- entry-smiles: "O=C(NCCCNc1cc(-c2cn(-c3ccccc3)nc2-c2cccc(O)c2)ccn1)Nc1cccc(C(F)(F)F)c1"
  relation-symbol: "="
  TGI [µM]: 16.7
- entry-smiles: "COc1cccc(-c2nn(-c3ccccc3)cc2-c2ccnc(NCCCNC(=O)Nc3ccc(F)cc3)c2)c1"
  relation-symbol: ">"
  TGI [µM]: 37

====

System: HCC 2998
Test: Antiproliferative activity against human HCC 2998 cells measured after 48 hrs by SRB assay
Format: functional, cell-based
Conditions: HCC 2998, time 48 hrs
Let's look at some compounds and their measured TGI.
measured-parameter: TGI (µM)

- entry-smiles: "O=C(Nc1ccc(Cl)c(C(F)(F)F)c1)N1CCN(c2cc(-c3cn(-c4ccccc4)nc3-c3cccc(O)c3)ccn2)CC1"
  measured-parameter: "TGI"
  unit-string: "µM"
  relation-symbol: ">"
  recorded-measurement: 22
- entry-smiles: "O=C1c2ccccc2-c2n[nH]c3cccc1c23"
  measured-parameter: "TGI"
  unit-string: "µM"
  relation-symbol: "="
  recorded-measurement: 54.6
- entry-smiles: "COc1cccc(-c2nn(-c3ccccc3)cc2-c2ccnc(NCCCNC(=O)Nc3ccc(F)cc3)c2)c1"
  measured-parameter: "TGI"
  unit-string: "µM"
  relation-symbol: "="
  recorded-measurement: 20
- entry-smiles: "O=C(NCCCNc1cc(-c2cn(-c3ccccc3)nc2-c2cccc(O)c2)ccn1)Nc1ccc(F)cc1"
  measured-parameter: "TGI"
  unit-string: "µM"
  relation-symbol: "="
  recorded-measurement: 4.05
- entry-smiles: "O=C(NCCCNc1cc(-c2cn(-c3ccccc3)nc2-c2cccc(O)c2)ccn1)Nc1cccc(C(F)(F)F)c1"
  measured-parameter: "TGI"
  unit-string: "µM"
  relation-symbol: "="
  recorded-measurement: 4.34

====

Tested on: SN12C
Test: Antiproliferative activity against human SN12C cells measured after 48 hrs by SRB assay
Type: functional, cell-based
Conditions: 48 h
Quick rule for you: IC50 under 4 µM gets 1, anything else gets -1.

- entry-smiles: "COc1cccc(-c2nn(-c3ccccc3)cc2-c2ccnc(NCCCNC(=O)Nc3ccc(F)cc3)c2)c1"
  label-class: -1
- entry-smiles: "O=C(NCCCNc1cc(-c2cn(-c3ccccc3)nc2-c2cccc(O)c2)ccn1)Nc1cccc(C(F)(F)F)c1"
  label-class: 1
- entry-smiles: "O=C(NCCCNc1cc(-c2cn(-c3ccccc3)nc2-c2cccc(O)c2)ccn1)Nc1ccc(F)cc1"
  label-class: 1
- entry-smiles: "O=C1c2ccccc2-c2n[nH]c3cccc1c23"
  label-class: -1
- entry-smiles: "O=C(Nc1ccc(Cl)c(C(F)(F)F)c1)N1CCN(c2cc(-c3cn(-c4ccccc4)nc3-c3cccc(O)c3)ccn2)CC1"
  label-class: 1

====

Test system: K562
Assay: Antiproliferative activity against human K562 cells measured after 48 hrs by SRB assay
Assay type: functional, cell-based
Settings: K562, 48 h
measured-parameter: IC50 (nM)

- entry-smiles: "O=C(NCCCNc1cc(-c2cn(-c3ccccc3)nc2-c2cccc(O)c2)ccn1)Nc1cccc(C(F)(F)F)c1"
  recorded-measurement: 1260
- entry-smiles: "COc1cccc(-c2nn(-c3ccccc3)cc2-c2ccnc(NCCCNC(=O)Nc3ccc(F)cc3)c2)c1"
  recorded-measurement: 2960
- entry-smiles: "O=C1c2ccccc2-c2n[nH]c3cccc1c23"
  recorded-measurement: 48600

====

This listing pairs compounds with measured IC50.
Molecular target: Mitogen-activated protein kinase 10 (Homo sapiens, UniProt P53779)
Sequence (P53779 whole entry): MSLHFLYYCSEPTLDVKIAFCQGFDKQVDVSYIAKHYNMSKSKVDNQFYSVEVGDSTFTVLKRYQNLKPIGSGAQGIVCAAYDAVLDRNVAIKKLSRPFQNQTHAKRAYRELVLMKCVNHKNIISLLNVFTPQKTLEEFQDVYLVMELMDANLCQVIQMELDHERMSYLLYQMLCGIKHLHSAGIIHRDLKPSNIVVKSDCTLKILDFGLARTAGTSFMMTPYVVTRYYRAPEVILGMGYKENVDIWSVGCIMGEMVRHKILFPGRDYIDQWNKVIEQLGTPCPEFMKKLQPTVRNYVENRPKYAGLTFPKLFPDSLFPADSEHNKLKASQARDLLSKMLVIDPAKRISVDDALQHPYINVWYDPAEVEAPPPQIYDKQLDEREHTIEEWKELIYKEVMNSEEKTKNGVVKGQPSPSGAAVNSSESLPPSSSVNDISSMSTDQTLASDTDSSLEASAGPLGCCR
Test: Inhibition of JNK3 (unknown origin)

- entry-smiles: "O=C(NCCNc1cc(-c2cn(-c3ccccc3)nc2-c2cccc(O)c2)ccn1)Nc1ccc(Cl)c(C(F)(F)F)c1"
  subject-of-test: "Mitogen-activated protein kinase 10 (Homo sapiens, UniProt P53779)"
  IC50: "> 1000 nM"
- entry-smiles: "COc1cccc(-c2nn(-c3ccccc3)cc2-c2ccnc(N3CCN(C(=O)Nc4cccc(C(F)(F)F)c4)CC3)c2)c1"
  subject-of-test: "Mitogen-activated protein kinase 10 (Homo sapiens, UniProt P53779)"
  IC50: "> 1000 nM"
- entry-smiles: "COc1cccc(-c2nn(-c3ccccc3)cc2-c2ccnc(N3CCN(C(=O)Nc4ccccc4)CC3)c2)c1"
  subject-of-test: "Mitogen-activated protein kinase 10 (Homo sapiens, UniProt P53779)"
  IC50: "> 1000 nM"
- entry-smiles: "O=C(NCCCNc1cc(-c2cn(-c3ccccc3)nc2-c2cccc(O)c2)ccn1)Nc1ccc(Cl)c(C(F)(F)F)c1"
  subject-of-test: "Mitogen-activated protein kinase 10 (Homo sapiens, UniProt P53779)"
  IC50: "614 nM"
- entry-smiles: "O=C(NCCCNc1cc(-c2cn(-c3ccccc3)nc2-c2cccc(O)c2)ccn1)Nc1cc(C(F)(F)F)cc(C(F)(F)F)c1"
  subject-of-test: "Mitogen-activated protein kinase 10 (Homo sapiens, UniProt P53779)"
  IC50: "> 1000 nM"
- entry-smiles: "COc1cccc(-c2nn(-c3ccccc3)cc2-c2ccnc(N3CCN(C(=O)Nc4cc(C(F)(F)F)cc(C(F)(F)F)c4)CC3)c2)c1"
  subject-of-test: "Mitogen-activated protein kinase 10 (Homo sapiens, UniProt P53779)"
  IC50: "> 1000 nM"
- entry-smiles: "O=C(NCCNc1cc(-c2cn(-c3ccccc3)nc2-c2cccc(O)c2)ccn1)Nc1cc(C(F)(F)F)cc(C(F)(F)F)c1"
  subject-of-test: "Mitogen-activated protein kinase 10 (Homo sapiens, UniProt P53779)"
  IC50: "> 1000 nM"
- entry-smiles: "COc1cccc(-c2nn(-c3ccccc3)cc2-c2ccnc(N3CCN(C(=O)Nc4ccc(Cl)c(C(F)(F)F)c4)CC3)c2)c1"
  subject-of-test: "Mitogen-activated protein kinase 10 (Homo sapiens, UniProt P53779)"
  IC50: "> 1000 nM"
- entry-smiles: "COc1cccc(-c2nn(-c3ccccc3)cc2-c2ccnc(N3CCN(C(=O)Nc4ccc(F)cc4)CC3)c2)c1"
  subject-of-test: "Mitogen-activated protein kinase 10 (Homo sapiens, UniProt P53779)"
  IC50: "> 1000 nM"
- entry-smiles: "O=C(Nc1ccc(Cl)c(C(F)(F)F)c1)N1CCN(c2cc(-c3cn(-c4ccccc4)nc3-c3cccc(O)c3)ccn2)CC1"
  subject-of-test: "Mitogen-activated protein kinase 10 (Homo sapiens, UniProt P53779)"
  IC50: "> 1000 nM"
